# target.entity: T1, VLP-hCLDN6 (human) (UniProt P56747)
# T1 sequence: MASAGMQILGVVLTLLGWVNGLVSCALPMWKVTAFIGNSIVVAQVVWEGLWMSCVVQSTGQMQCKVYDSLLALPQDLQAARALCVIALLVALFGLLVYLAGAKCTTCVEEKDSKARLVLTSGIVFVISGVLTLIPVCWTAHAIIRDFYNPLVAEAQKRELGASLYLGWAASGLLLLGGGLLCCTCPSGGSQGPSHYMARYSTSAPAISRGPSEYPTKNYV
# assay.summary: ELISA, coated VLP-hCLDN6, 10 ul antibody sample, HRP-Protein A; also: test concentration or dose not given here
measure.name: OD450

Dear colleague, I am looking for the recorded OD450 of the following binder: humanized antibody hAb-13 (antibody, V domains shown) VH: EVKLVESGGGLVKPGGSLRLSCAASGFTFNSYTMSWVRQTPAKRLEWVVTISSGGGRTYYPDSVKGRFTISRDNAKNTLYLQMSSLRAEDTAVYYCIRGDYRYDGFAYWGQGTLVTVSS VL: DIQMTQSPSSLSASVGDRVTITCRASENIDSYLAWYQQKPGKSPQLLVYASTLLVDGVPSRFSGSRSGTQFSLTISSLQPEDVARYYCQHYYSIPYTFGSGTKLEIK
1.68

Also, humanized antibody hAb-18 (antibody, V domains shown) VH: EVKLVESGGGLVQPGGSLRLSCAASGFTFNSYTMSWVRQTPAKRLEWVVTISSGGGRTYYPDSVKGRFTISRDNAKNTLYLQMSSLRAEDTAVYYCIRGDYRYDGFAYWGQGTLVTVSS VL: DIQMTQSPSSLSASVGDRVTITCRASENIDSYLAWYQQKPGKSPQLLVYASTLLQDGVPSRFSGSRSGTDFTLTISSLQPEDVATYYCQHYYSIPYTFGSGTKLEIK please.
1.17

# credit: patent EP4707304A1
